Tested on: SF268
method.notes: Cytotoxic assay MTT, monolayer culture
Assay type: cell-based, human
condition.notes: Homo sapiens, SF-268, SF268 NAMPT (overexpressing); monolayer; combined with constant 100 µM TMZ; read-out: IC50 FK866 + 100 µM TMZ (nM ± SD)
measure.name: IC50 (nM)
Give the number; nM is assumed, so skip it.

Reported IC50 for SF268, given O=C(/C=C/c1cccnc1)NCCCCC1CCN(C(=O)c2ccccc2)CC1 ?
0.2

---

System: SF268
method.notes: Cytotoxic assay MTT, monolayer culture
Type: cell-based, human
condition.notes: Homo sapiens, SF-268, 96 h, SF268 NAMPT (overexpressing); monolayer; monotherapy; 96 hours; read-out: IC50 TMZ (µM ± SD)
measure.name: IC50 (µM)
Give the number; µM is assumed, so skip it.

Consider the molecule Cn1nnc2c(C(N)=O)ncn2c1=O [TMZ, Temozolomide] and give its measured IC50.
174

---

System: U251MG tumorspheres
method.notes: Cytotoxic assay, tumorsphere specific assay
Type: cell-based
condition.notes: Homo sapiens, U-251, U251MG sh (NAMPT shRNA), combined with constant 150 µM TMZ, read-out: IC50 FK866 + 150 µM TMZ (nM ± SD)
measure.name: IC50 (nM)
Give the number; nM is assumed, so skip it.

Consider the molecule O=C(/C=C/c1cccnc1)NCCCCC1CCN(C(=O)c2ccccc2)CC1 [FK866] and give its measured IC50.
25.4

---

System: SF268 tumorspheres
method.notes: Cytotoxic assay, tumorsphere specific assay
Format: cell-based, human
condition.notes: Homo sapiens, SF-268, SF268 NAMPT (overexpressing), monotherapy, read-out: IC50 TMZ (µM ± SD)
measure.name: IC50 (µM)
Give the number; µM is assumed, so skip it.

Consider the compound Cn1nnc2c(C(N)=O)ncn2c1=O [TMZ, Temozolomide] and give its measured IC50.
173

---

Test system: SF268 tumorspheres
method.notes: Cytotoxic assay, tumorsphere specific assay
Format: cell-based, human
condition.notes: Homo sapiens, SF-268, SF268 v (vector only), monotherapy, read-out: IC50 TMZ (µM ± SD)
measure.name: IC50

Consider the molecule Cn1nnc2c(C(N)=O)ncn2c1=O [TMZ, Temozolomide] and give its measured IC50.
170 µM

---

Tested on: SF268
method.notes: Cytotoxic assay MTT, monolayer culture
Type: cell-based, human
condition.notes: Homo sapiens, SF-268, 96 h, SF268 sh (NAMPT shRNA); monolayer; monotherapy; 96 hours; read-out: IC50 FK866 (nM ± SD)
measure.name: IC50

Consider the compound O=C(/C=C/c1cccnc1)NCCCCC1CCN(C(=O)c2ccccc2)CC1 and give its measured IC50.
8.3 nM

---

Test system: U251MG tumorspheres
method.notes: Cytotoxic assay, tumorsphere specific assay
Type: cell-based
condition.notes: Homo sapiens, U-251, U251MG v (vector only), monotherapy, read-out: IC50 TMZ (µM ± SD)
measure.name: IC50 (µM)
Give the number; µM is assumed, so skip it.

Reported IC50 for U251MG tumorspheres, given Cn1nnc2c(C(N)=O)ncn2c1=O [TMZ, Temozolomide] ?
224

---

Test system: U251MG
method.notes: Cytotoxic assay MTT, monolayer culture
Format: cell-based
condition.notes: Homo sapiens, U-251, U251MG NAMPT (overexpressing), combined with constant 150 µM TMZ, read-out: IC50 FK866 + 150 µM TMZ (nM ± SD)
measure.name: IC50 (nM)
Give the number; nM is assumed, so skip it.

Reported IC50 for U251MG, given O=C(/C=C/c1cccnc1)NCCCCC1CCN(C(=O)c2ccccc2)CC1 ?
5.1

This collection of values is drawn from patent EP3428647A1.
